assayedTarget: human GLP-1 receptor (human) (UniProt P43220)
Sequence (P43220 24-463): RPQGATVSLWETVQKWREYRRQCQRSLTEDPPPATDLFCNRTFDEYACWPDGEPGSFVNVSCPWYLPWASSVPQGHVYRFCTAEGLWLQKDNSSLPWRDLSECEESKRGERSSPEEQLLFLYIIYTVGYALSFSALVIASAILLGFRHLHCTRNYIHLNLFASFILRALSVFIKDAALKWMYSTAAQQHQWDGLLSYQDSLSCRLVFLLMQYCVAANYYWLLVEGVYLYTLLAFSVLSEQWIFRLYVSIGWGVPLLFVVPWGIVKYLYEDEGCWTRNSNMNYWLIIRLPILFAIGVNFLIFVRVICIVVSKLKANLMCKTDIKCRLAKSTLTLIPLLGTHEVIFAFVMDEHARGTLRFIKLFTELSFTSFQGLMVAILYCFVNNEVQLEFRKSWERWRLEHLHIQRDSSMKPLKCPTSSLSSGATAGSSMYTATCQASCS
measurementProtocol: cell-based or functional assay
readoutKind: cAMP EC50, Batch 1 (nM)

Some binders with known cAMP EC50, Batch 1 results, for comparison:
[
  {
    "binder": "IP146 (Fc fusion) HGEGTFTSDVSSYLEGQAAKEFIAWLVKGAAAGGSGSTASSGSGSATGGGGAACPPCPAPEF",
    "cAMP EC50, Batch 1, nM": 0.049
  },
  {
    "binder": "IP238 (Fc fusion) HGEGTFTSDVSSYLEGQAAKEFIAWLVKGGGGGGSGGGGSGGGGSAESKYGPPCPPC",
    "cAMP EC50, Batch 1, nM": 0.058
  }
]

P. IP196 (Fc fusion) HGEGTFTSDVSSYLEGQAAKEFIAWLVKGAAAGGSGSTASSGSGSATGGGGAPEF
Q. IP192 (Fc fusion) HGEGTFTSDVSSYLEGQAAKEFIAWLVKGAAAGGSGSTASSGSGSATGGGGAATSTCPPCPAPEF
R. IP188 (Fc fusion) YSEGTFISDYSIAMDKIHQQDFVNWLLAQKAPPGGGGGSGGGGSGGGGSGGGGSATHTCPPCPAPEF
Sort (3 binders) by cAMP EC50, Batch 1: min first. Use the labels to give the requested order.
Q, P, R
(Q: 0.043 nM, P: 0.073 nM, R: 500 nM)

1. IP194 (Fc fusion) HGEGTFTSDVSSYLEGQAAKEFIAWLVKGAAAGGSGSTASSGSGSATGGGGPPCPPCPAPEF
2. IP203 (Fc fusion) HGEGTFTSDVSSYLEGQAAKEFIAWLVKGGAAAGGSGSTASSGSGSATGGGGAATHTCPPCPAPEF
// select label with min value of measured cAMP EC50, Batch 1 from [ 1 , 2 ] Response format: the label of the selected entry.
2

A. IP195 (Fc fusion) HGEGTFTSDVSSYLEGQAAKEFIAWLVKGAAAGGSGSTASSGSGSATGGGGESKYGPPCPPCPAPEF
B. IP187 (Fc fusion) HGEGTFTSDVSSYLEGQAAKEFIAWLVKGAPPGGGGGSGGGGSGGGGSGGGGSATHTCPPCPAPEF
Between these two entries, A and B , state which has the higher cAMP EC50, Batch 1. Response format: the label of the selected entry.
A
(A: 0.061 nM, B: 0.037 nM)

// data source = patent US20160185837A1
